test: Liver-targeted tissue distribution profile study in rats
Type: in vivo, Sprague Dawley rats
settings: rat, single 10 mg/kg PO, liver, 24 h
value.type: Measured Compound Concentrations Liver - 24 h

N#Cc1cccc(-c2nn(-c3nc(C(=O)O)cs3)c(CC3CC3)c2Cc2ccc(S(N)(=O)=O)c(F)c2)c1 : − (0.25 μM≥−)
NS(=O)(=O)c1ccc(Cc2c(-c3ccc(Cl)cc3)nn(-c3nc(C(=O)O)cs3)c2CC2CC2)cc1F : − (0.25 μM≥−)
NS(=O)(=O)c1ccc(Cc2c(-c3cccc(OC(F)(F)F)c3)nn(-c3nc(C(=O)O)cs3)c2CC2CC2)cc1F : − (0.25 μM≥−)
NS(=O)(=O)c1ccc(Cc2c(-c3ccc(F)cc3)nn(-c3nc(C(=O)O)cs3)c2CC2CC2)cc1F : + (1 μM≥+>0.25 μM)
NS(=O)(=O)c1ccc(Cc2c(-c3cccc(Cl)c3)nn(-c3nc(C(=O)O)cs3)c2CC2CC2)cc1F : − (0.25 μM≥−)

Briefly, Measured Compound Concentrations Liver - 24 h measured for `NS(=O)(=O)c1ccc(Cc2c(-c3ccccc3)nn(-c3nc(C(=O)O)cs3)c2CC2CC2)cc1F` : − (0.25 μM≥−)

Briefly, Measured Compound Concentrations Liver - 24 h measured for `NS(=O)(=O)c1ccc(Cc2c(-c3cccc(F)c3)nn(-c3nc(C(=O)O)cs3)c2CC2CC2)cc1F` : + (1 μM≥+>0.25 μM)
